experiment: yeast display, Sf9 membrane polyspecificity reagent, FACS + sequencing; frameworks hold sequencing errors
MEASURED QUANTITY: polyreactivity (PSR sort gate)

Solved cases (4 shown):
- QUERY SEQUENCE: "QVQLVESAGGLVQAGGSLRLSCAASGNTFATYAMGWYRQAPGKERELVAAITWTGGRTRYADSVKVRFTISRDNAKNTVYLPMNSLKPEDTAVYYCAAKRYDTTYDSWGQGTQVTVSS"
  MEASURED QUANTITY: "polyreactivity (PSR sort gate)"
  MEAS VALUE: "high polyreactivity"
- QUERY SEQUENCE: "QVQLVESGGGLVQAGGSLRLSCAASGFTFNRNAMGWYRQAPGKERELVAAISWSGGSTYYADSVKGRFTLSRDNAKNTVYLQMNSLKPEETAVYYCAKGYRRVYGPFYYWGQGTQVTVSS"
  MEASURED QUANTITY: "polyreactivity (PSR sort gate)"
  MEAS VALUE: "low polyreactivity"
- QUERY SEQUENCE: "QVQLVESGGGLVQAGGSLRLSCAASGSIFYVYAMGWYRQAPGKERELVADITTRDGDTYYADSVKGRFTISRDNAKNTVYLQMNSLKPEDTAVYYCAADLNAYPQRAYDYWGQGTQVTVSS"
  MEASURED QUANTITY: "polyreactivity (PSR sort gate)"
  MEAS VALUE: "low polyreactivity"
- QUERY SEQUENCE: "QVQLVESGGGLGQAGGSLRLSCAASGSIFTQYAMGWFRPAPGKERELVATISKSSGSTYYADSVKGRFTNSRDNAKNTVYLQMNSLKPEDTAVYDCAARYTRAYPYYYWGQGTQVTVSS"
  MEASURED QUANTITY: "polyreactivity (PSR sort gate)"
  MEAS VALUE: "high polyreactivity"

As a next step, examine the sequence that follows.
Any idea what polyreactivity (PSR sort gate) was measured for `QVQLLESGGGLGQAGGRLRLICAASGRTFTPYAMGWYRPAPGKERELVAAIDTSGGSTYADSVKGRFTISRDNAKNTVYLQMNCQKPEDTAVYYCATRGFYSWDYWYLWEYDYWGQGTQVTVSS` ? low polyreactivity
